B1: TPR t1 (parent)
chain: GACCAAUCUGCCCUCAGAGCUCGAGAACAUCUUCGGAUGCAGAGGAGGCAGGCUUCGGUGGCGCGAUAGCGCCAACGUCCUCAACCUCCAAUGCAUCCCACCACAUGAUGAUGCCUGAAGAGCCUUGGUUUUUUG

variants of: B1; test: polymerase ribozyme fitness, log enrichment relative to wild type (log ratio); higher = more active; in vitro selection for triplet polymerase activity
Parameter threshold = -1. Response is Satisfied when polymerase ribozyme fitness (log ratio) meets or exceeds it, else Not satisfied.

QUERY: Does the variant C13U U78A have recorded polymerase ribozyme fitness (log ratio) that is -1 or more?
RESULT: Satisfied

QUERY: Record: C72U U78C C86G C115U
RESULT: Not satisfied

QUERY: Record: G61U C114A
RESULT: Not satisfied

QUERY: Record: G44A C56A C89U C97U U116A
RESULT: Not satisfied

QUERY: Record: U55G G69C A119U G127C
RESULT: Not satisfied

QUERY: Record: A6U A27U U81A
RESULT: Not satisfied

QUERY: Record: C15U A66G G71A C98A G113U
RESULT: Not satisfied

QUERY: Record: G10A G36U G44U G61U C88U A95G U96A G120A
RESULT: Not satisfied

QUERY: Record: G44C A50C G60U
RESULT: Not satisfied

QUERY: Record: C13G A26C C40U C79U C85U G120C
RESULT: Not satisfied

QUERY: Record: C28U G36C C56U U81C G122U C124U U132C
RESULT: Not satisfied

QUERY: Record: G42A G44U C70U C76U
RESULT: Not satisfied

QUERY: Record: A83U A91C G128A
RESULT: Not satisfied

QUERY: Record: C15G G47U A83U A108U C114G U116G G117C
RESULT: Not satisfied

QUERY: Record: U87A C89U
RESULT: Satisfied

QUERY: Record: C3G C13U G45U G48A
RESULT: Not satisfied

QUERY: Record: U14C A37C
RESULT: Not satisfied

QUERY: Record: G39A C64U A90G G135U
RESULT: Not satisfied

QUERY: Record: G45U C73U C79A
RESULT: Not satisfied

QUERY: Record: C72G G117C A119U
RESULT: Satisfied

QUERY: Record: A5U A41U G61A C82G G120A U125G
RESULT: Not satisfied

QUERY: Record: C62U U87A A121U
RESULT: Satisfied

QUERY: Record: C8A G35U
RESULT: Not satisfied

QUERY: Record: C4U C56U
RESULT: Satisfied
